Assign ratio of Nav 1.7 potency:Nav 1.5 potency to each entry below.
# TARGET ENTITY: human Nav1.5 (Homo sapiens)
# Construct: expressed in transfected cells; host or cells: HEK 293
# MEASUREMENT NOTES: IonWorks Quattro automated patch-clamp, Nav1.5 (selectivity against Nav1.7)
# Type: cell-based
# APPLIED CONDITIONS: IonWorks measurement, HEK 293 cells, inactivated state block

COMPOUND: O=S(=O)(Nc1ncns1)c1cc(Br)c(NCCCCNC[C@@H]2CCN2)cc1F [Ex 16-76]
MEASURED: > 1940

# return ratio of Nav 1.7 potency:Nav 1.5 potency for each item in the list
1. O=S(=O)(Nc1nccs1)c1cc(Cl)c(NCCCCNCC[C@H]2CCCN2)cc1F [Ex 16-14]
2. CC(C)C[C@@H](CNCCCCNc1cc(F)c(S(=O)(=O)Nc2ncc(F)s2)cc1Cl)[C@@H](C)N [Ex 16-84]
3. NCCCNCCCCNc1cc(F)c(S(=O)(=O)Nc2ncns2)cc1Cl [Ex 16-32]

**Result**
1. > 846
2. > 5400
3. > 673

Go through the list and state ratio of Nav 1.7 potency:Nav 1.5 potency for each entry.
1. O=S(=O)(Nc1ncc(F)s1)c1cc(Cl)c(NCCCCNCC[C@@H]2CCCN2)cc1F [Ex 16-24]
2. NCCNCCCCNc1cc(F)c(S(=O)(=O)Nc2ncc(F)s2)cc1Cl [Ex 16-57]
3. N[C@@H]1CCC[C@H]1NCCCCNc1cc(F)c(S(=O)(=O)Nc2nccs2)cc1Cl [Ex 16-09]
4. C[C@@H](N)CCNCCCCNc1cc(F)c(S(=O)(=O)Nc2ncc(F)s2)cc1Cl [Ex 16-30]
5. CCNCCNCCCCNc1cc(F)c(S(=O)(=O)Nc2ncns2)cc1Br [Ex 16-92]
6. NC1CCC1NCCCCNc1cc(F)c(S(=O)(=O)Nc2ncns2)cc1Cl (single isomer, unassigned) [Ex 16-82]
7. N[C@H]1CC[C@H](NCCCCNc2cc(F)c(S(=O)(=O)Nc3ncns3)cc2Br)C1 [Ex 16-95]
8. N[C@H]1CCC[C@@H]1NCCCCNc1cc(F)c(S(=O)(=O)Nc2ncns2)cc1Cl [Ex 16-70]

**Result**
1. > 1571
2. > 4400
3. > 3590
4. > 2357
5. > 9700
6. > 10000
7. > 940
8. > 2710

Hey, quick one: what's ratio of Nav 1.7 potency:Nav 1.5 potency for each of these?
1. N[C@H]1CCC[C@H]1NCCCCNc1cc(F)c(S(=O)(=O)Nc2ncc(F)s2)cc1Cl [Ex 16-64]
2. N[C@@H]1CCC[C@@H]1NCCCCNc1cc(F)c(S(=O)(=O)Nc2ncns2)cc1Br [Ex 16-93]
3. CC(C)(CCN)NCCCCNc1cc(F)c(S(=O)(=O)Nc2ncc(F)s2)cc1Cl [Ex 16-27]
4. O=S(=O)(Nc1ncns1)c1cc(F)c(NCCCCNC[C@@H]2CCCN2)cc1F [Ex 7-7]
5. N[C@@H]1CCCC[C@H]1NCCCCNc1cc(F)c(S(=O)(=O)Nc2nccs2)cc1Cl [Ex 1-28]
6. NCC1(NCCCCNc2cc(F)c(S(=O)(=O)Nc3ncns3)cc2Br)CC1 [Ex 16-98]
7. N[C@@H]1CCC[C@H]1NCCCCNc1cc(F)c(S(=O)(=O)Nc2ncc(F)s2)cc1Cl [Ex 16-05]
8. N[C@H]1CCCC[C@@H]1NCCCCNc1cc(F)c(S(=O)(=O)Nc2nccs2)cc1Cl [Ex 1-07]

**Result**
["> 1430", "> 800", "> 1737", "> 410", "> 3930", "> 3840", 3400, "> 1800"]

For each of the items listed, what is its ratio of Nav 1.7 potency:Nav 1.5 potency?
1. CC(C)C[C@@H](CNCCCCNc1cc(F)c(S(=O)(=O)Nc2ncns2)cc1Cl)[C@@H](C)N [Ex 16-85]
2. O=S(=O)(Nc1ncc(F)s1)c1cc(Cl)c(NCCCCNC[C@H]2CCCN2)cc1F [Ex 16-13]
3. O=S(=O)(Nc1ncns1)c1cc(Cl)c(NCCCCNCC[C@H]2CCCN2)cc1F [Ex 16-20]
4. O=S(=O)(Nc1nccs1)c1cc(Cl)c(NCCCCNC[C@H]2CCN2)cc1F [Ex 16-75]

**Result**
["> 7330", 2538, "> 412", "> 805"]

* * *

Provide the recorded ratio of Nav 1.7 potency:Nav 1.5 potency for the entries that follow.
# TARGET ENTITY: human Nav1.5 (Homo sapiens, UniProt Q14524)
# Construct: expressed in transfected cells; host or cells: HEK 293
# Sequence (Q14524 whole entry): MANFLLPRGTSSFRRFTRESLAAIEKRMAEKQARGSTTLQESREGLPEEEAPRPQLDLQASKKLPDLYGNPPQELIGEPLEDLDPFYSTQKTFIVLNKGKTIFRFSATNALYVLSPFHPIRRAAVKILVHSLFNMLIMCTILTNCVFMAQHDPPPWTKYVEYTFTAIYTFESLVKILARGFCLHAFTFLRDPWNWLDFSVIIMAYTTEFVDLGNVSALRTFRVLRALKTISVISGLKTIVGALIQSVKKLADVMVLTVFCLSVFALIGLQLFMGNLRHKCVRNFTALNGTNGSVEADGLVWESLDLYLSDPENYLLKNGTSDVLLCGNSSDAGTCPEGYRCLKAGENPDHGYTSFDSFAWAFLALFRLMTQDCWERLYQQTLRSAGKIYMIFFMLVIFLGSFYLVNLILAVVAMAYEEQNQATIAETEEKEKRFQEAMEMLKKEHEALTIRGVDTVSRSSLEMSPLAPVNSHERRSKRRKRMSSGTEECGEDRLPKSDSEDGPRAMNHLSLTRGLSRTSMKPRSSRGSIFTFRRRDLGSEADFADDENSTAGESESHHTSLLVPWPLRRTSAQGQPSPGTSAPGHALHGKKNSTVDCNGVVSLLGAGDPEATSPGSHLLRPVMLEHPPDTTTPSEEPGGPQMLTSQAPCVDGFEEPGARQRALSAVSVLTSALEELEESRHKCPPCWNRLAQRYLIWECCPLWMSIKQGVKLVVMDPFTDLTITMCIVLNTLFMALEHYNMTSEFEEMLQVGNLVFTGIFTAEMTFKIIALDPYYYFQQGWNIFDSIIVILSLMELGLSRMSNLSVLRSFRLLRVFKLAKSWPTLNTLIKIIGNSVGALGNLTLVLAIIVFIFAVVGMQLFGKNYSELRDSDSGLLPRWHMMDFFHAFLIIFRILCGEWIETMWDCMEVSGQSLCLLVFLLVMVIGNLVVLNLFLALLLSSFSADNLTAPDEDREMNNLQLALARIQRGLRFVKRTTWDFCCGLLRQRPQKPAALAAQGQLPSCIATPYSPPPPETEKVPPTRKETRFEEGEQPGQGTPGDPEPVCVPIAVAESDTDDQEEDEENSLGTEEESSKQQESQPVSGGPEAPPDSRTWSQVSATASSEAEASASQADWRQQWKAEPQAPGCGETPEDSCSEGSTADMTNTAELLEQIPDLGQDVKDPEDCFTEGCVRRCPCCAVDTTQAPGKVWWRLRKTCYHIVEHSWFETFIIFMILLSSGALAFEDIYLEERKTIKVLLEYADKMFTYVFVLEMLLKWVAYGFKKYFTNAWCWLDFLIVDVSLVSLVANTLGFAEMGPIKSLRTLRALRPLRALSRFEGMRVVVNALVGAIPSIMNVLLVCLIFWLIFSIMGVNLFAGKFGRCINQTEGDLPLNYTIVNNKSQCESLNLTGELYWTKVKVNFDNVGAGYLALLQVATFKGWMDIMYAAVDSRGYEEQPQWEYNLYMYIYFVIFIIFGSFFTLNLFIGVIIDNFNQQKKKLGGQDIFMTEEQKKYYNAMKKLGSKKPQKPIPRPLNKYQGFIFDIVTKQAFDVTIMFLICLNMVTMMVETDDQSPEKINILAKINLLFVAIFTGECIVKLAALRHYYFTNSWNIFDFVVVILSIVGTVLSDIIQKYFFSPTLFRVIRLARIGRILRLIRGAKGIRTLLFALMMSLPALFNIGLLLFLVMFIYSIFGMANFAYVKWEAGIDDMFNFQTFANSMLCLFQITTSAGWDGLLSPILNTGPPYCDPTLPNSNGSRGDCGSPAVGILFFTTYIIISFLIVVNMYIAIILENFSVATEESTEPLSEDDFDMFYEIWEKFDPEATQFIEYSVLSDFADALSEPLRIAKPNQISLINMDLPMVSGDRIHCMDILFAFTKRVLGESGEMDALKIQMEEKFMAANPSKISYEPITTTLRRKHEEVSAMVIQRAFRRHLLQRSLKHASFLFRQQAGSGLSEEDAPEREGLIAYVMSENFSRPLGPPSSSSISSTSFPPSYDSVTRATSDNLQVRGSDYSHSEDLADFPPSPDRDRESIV
# MEASUREMENT NOTES: IonWorks Quattro automated patch-clamp, Nav1.5 (selectivity against Nav1.7)
# Assay type: cell-based
# APPLIED CONDITIONS: IonWorks measurement, HEK 293 cells, inactivated state block

COMPOUND: C[C@H](N)CNCCCCNc1cc(F)c(S(=O)(=O)Nc2nccs2)cc1Cl [Ex 16-12]
OBSERVABLE: ratio of Nav 1.7 potency:Nav 1.5 potency
MEASURED: > 2540

Hi, could you look up ratio of Nav 1.7 potency:Nav 1.5 potency for each item in my list?
1. N[C@@H]1CCC[C@@H]1NCCCCNc1cc(F)c(S(=O)(=O)Nc2nccs2)cc1Cl [Ex 1-29]
2. C[C@H](CCN)NCCCCNc1cc(F)c(S(=O)(=O)Nc2ncns2)cc1Br [Ex 16-79]
3. O=S(=O)(Nc1ncc(F)s1)c1cc(Cl)c(NCCCCNC[C@H]2CCCCN2)cc1F [Ex 16-16]
4. O=S(=O)(Nc1nccs1)c1cc(Cl)c(NCCCCNC[C@@H]2CCN2)cc1F [Ex 16-74]

**Result**
["> 635", 4260, "> 3800", "> 429"]

* * *

Kindly state pIC50 for each of the entries shown.
# TARGET ENTITY: human Nav1.7 (Homo sapiens)
# Construct: expressed in transfected cells; host or cells: HEK 293
# MEASUREMENT NOTES: IonWorks Quattro automated patch-clamp, inactivated state block of Nav1.7
# Assay type: cell-based
# APPLIED CONDITIONS: channels stably expressed in HEK 293 cells; double-pulse protocol, inactivated state block; read-out: potency for the Nav 1.7 sodium ion channel (IC50, as measured by IonWorks)
One number for each entry, as −log10 of the molar value.

Examples with their reported pIC50 follow.
COMPOUND STRUCTURE STRING: O=S(=O)(Nc1ncc(F)s1)c1cc(Cl)c(NCCCCNC[C@H]2CCCN2)cc1F
pIC50: 7.92
--
COMPOUND STRUCTURE STRING: CNCCNCCCCNc1cc(F)c(S(=O)(=O)Nc2nccs2)cc1Br
pIC50: 7.96
--
COMPOUND STRUCTURE STRING: C[C@@H]1CN[C@H](CNCCCCNc2cc(F)c(S(=O)(=O)Nc3nccs3)cc2Cl)C1
pIC50: 7.74
--
COMPOUND STRUCTURE STRING: C[C@H](N)CNCCCCNc1cc(F)c(S(=O)(=O)Nc2ncns2)cc1Cl
pIC50: 7.92
--
COMPOUND STRUCTURE STRING: O=S(=O)(Nc1ncns1)c1cc(Cl)c(NCCCCNC2CNC2)cc1F
pIC50: 7.82
--
COMPOUND STRUCTURE STRING: C[C@H](CN)NCCCCNc1cc(F)c(S(=O)(=O)Nc2ncns2)cc1Br
pIC50: 7.92
--
COMPOUND STRUCTURE STRING: O=S(=O)(Nc1ncns1)c1cc(Cl)c(NCCCCNC[C@H]2CCCCN2)cc1F
pIC50: 8.29
--
COMPOUND STRUCTURE STRING: N[C@H]1CCCC[C@@H]1NCCCCNc1cc(F)c(S(=O)(=O)Nc2nccs2)cc1Cl
pIC50: 7.74
--
COMPOUND STRUCTURE STRING: CC(C)(CN)NCCCCNc1cc(F)c(S(=O)(=O)Nc2ncc(F)s2)cc1Cl
pIC50: 7.68

Here is the next item to consider.
**Query** Name the recorded pIC50 for `N[C@@H]1CCC[C@@H]1NCCCCNc1cc(F)c(S(=O)(=O)Nc2ncns2)cc1Br` .
**Result** 7.39

* * *

Consider the following compounds; for each one, report its IC50.
# TARGET ENTITY: human Nav1.7 (Homo sapiens, UniProt Q15858)
# Construct: expressed in transfected cells; host or cells: HEK 293
# Sequence (Q15858 whole entry): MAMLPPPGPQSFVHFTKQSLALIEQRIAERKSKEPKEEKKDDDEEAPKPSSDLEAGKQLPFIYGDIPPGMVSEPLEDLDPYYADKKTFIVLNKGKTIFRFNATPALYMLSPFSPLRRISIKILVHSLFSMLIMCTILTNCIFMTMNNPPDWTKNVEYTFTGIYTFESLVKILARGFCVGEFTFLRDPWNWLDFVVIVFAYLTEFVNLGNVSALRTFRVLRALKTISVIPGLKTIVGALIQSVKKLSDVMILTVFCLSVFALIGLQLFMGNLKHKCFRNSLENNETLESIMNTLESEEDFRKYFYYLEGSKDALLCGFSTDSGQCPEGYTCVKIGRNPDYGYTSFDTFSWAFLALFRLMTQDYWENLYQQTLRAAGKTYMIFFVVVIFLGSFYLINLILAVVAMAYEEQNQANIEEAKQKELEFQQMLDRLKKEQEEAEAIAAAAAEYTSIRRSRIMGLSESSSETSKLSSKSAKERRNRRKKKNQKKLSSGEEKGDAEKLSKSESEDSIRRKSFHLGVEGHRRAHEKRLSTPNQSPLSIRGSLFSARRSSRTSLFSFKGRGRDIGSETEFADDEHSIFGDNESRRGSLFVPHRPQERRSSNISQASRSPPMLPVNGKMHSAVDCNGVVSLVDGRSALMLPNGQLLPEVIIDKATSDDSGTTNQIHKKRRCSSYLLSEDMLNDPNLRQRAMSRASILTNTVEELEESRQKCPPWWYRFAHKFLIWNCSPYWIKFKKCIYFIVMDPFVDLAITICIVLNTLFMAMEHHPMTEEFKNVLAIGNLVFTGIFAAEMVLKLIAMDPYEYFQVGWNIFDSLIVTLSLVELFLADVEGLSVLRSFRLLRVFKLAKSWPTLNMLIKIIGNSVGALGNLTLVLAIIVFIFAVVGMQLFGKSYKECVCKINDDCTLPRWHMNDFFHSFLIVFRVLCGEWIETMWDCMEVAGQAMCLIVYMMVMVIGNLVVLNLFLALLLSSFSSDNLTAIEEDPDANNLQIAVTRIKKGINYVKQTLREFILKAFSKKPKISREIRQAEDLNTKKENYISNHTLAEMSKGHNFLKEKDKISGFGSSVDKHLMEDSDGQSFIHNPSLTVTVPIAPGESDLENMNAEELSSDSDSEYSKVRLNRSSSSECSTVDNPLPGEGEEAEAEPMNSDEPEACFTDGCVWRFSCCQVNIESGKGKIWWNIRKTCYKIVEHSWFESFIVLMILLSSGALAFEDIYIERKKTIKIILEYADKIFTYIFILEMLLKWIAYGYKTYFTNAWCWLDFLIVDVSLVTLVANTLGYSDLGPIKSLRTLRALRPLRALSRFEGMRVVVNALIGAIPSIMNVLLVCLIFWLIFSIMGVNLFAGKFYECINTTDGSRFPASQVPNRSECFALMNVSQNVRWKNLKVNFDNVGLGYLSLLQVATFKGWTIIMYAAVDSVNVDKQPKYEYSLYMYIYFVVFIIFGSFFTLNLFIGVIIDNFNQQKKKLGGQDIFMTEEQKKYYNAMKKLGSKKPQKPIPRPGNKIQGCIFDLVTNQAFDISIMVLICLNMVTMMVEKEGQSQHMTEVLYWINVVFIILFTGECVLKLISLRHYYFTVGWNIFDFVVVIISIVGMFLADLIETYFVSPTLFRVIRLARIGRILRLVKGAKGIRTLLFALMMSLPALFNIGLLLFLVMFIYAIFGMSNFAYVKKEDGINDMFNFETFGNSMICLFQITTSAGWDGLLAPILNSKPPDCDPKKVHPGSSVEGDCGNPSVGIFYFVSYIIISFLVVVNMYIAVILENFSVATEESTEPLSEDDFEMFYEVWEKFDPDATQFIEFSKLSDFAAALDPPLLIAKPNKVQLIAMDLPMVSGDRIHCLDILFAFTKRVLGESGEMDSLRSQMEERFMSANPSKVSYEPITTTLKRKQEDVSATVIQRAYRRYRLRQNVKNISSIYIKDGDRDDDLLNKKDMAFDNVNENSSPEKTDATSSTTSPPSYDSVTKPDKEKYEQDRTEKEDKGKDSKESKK
# MEASUREMENT NOTES: IonWorks Quattro automated patch-clamp, inactivated state block of Nav1.7
# Format: cell-based
# APPLIED CONDITIONS: channels stably expressed in HEK 293 cells; double-pulse protocol, inactivated state block; read-out: potency for the Nav 1.7 sodium ion channel (IC50, as measured by IonWorks)
Numbers only, in nM.

Some entries whose results are on file:
COMPOUND STRUCTURE STRING: C[C@@H](N)CCNCCCCNc1cc(F)c(S(=O)(=O)Nc2nccs2)cc1Cl
IC50 / nM: 29
//
COMPOUND STRUCTURE STRING: O=S(=O)(Nc1ncns1)c1cc(F)c(NCCCCNC[C@@H]2CCCN2)cc1F
IC50 / nM: 80

**Query** Reported IC50 for `O=S(=O)(Nc1ncns1)c1cc(Cl)c(NCCCCNC[C@H]2CCN2)cc1F` : what is it?
**Result** 14

Attribution: patent US10519147B2
